Every entry's value here was drawn from paper PMC11320570.

Reported values of pKd for individual entries
target_entity: T1, DENV-2 EDIII wild-type Fc-fusion antigen (dengue virus serotype 2 (DENV-2), …)
T1 chain: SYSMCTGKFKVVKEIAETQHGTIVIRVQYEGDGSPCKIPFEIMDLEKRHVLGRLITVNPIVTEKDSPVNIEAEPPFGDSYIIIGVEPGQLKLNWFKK
measurement_notes: ELISA
The value called pKd is obtained by taking minus log10 of the concentration in mol/L.

Would you please look over these solved cases?
{"columns": ["binder", "pKd"],
 "data": [
  ["3H5 mouse antibody (antibody, V domains shown) VH: QVQLQQSGAEVARPGASVKLSCKASGYTFTSYWLQWVKQRPGQGLEWIGAIWPGDDDTRYAQKFQGKATMTADKSSSTAYIQLSNLASEDSAVYYCARKGGFAMDYWGQGTSVTVSS VL: NIVMTQSPTSLAVSLGQRATISCRASESVDSFGKSFMHFYQQKPGQPPKLLIHLASNLESGVPARFTGRGSRTDFTLTIDPVEADDAATYYCQQNNEVPFTFGSGTKLEVK", 8.97],
  ["2C8 mouse antibody (antibody, V domains shown) VH: EVKLVESGGGLVQPGGSLSLSCAASGFTFTDYYMTWVRQPPGKALEWLALIRNKASGYTTEYSASVKGRFTISRDNSQSILYLQMNALRAEDSATYYCTRAKWDGHYFDYWGQGTTLTVSS VL: DIQMTQSPASLSVSVGETVTITCRATKNIYNNLAWYQQKQGRSPQLLVYAATNLADGVPSRFSGSGSGTQFSLRINSLQSEDFGNYYCQHFWHTPWTFGGGTKLEIK", 9.66]
]}

Ask | Give the reported pKd for this binder. 2H12 mouse antibody (antibody, V domains shown) VH: DVQLVEPGAELVQPGASVKMSCKASGYTFSSYWINWEKQRPGKGLEWIGNIYPGSGTVNYDDKFKSKATLTIDTSSNTAYMQLSSLTSEDSAVYYCTRGGSHAMDYWGQGTSVTVSS VL: DIVMTQSQKFMSTSVGDRVSITCKASQNVRTSVAWYQQKPGQSPKALIYLASNRHTGVPDRFTGSGSGTDFTLTISNVQSEDLADYFCLQHWTYPYTFGGGTKLEIK
Reply | 9.41

Ask | Give the reported pKd for this binder. 513 engineered and humanized antibody (antibody, V domains shown) VH: QVQLVQSGAEVKKPGASVKVSCKAGFNIKDVYMSWVRQAPEQGLEWMGRIDPENGDTKYDPKLQGRVTMTADTSTNTAYMELRSLRSDDTAVYYCARGWEGFAYWGQGTLVTVSS VL: DIVMTQSPASLAVSLGQRATISCRASENVDKYGNSFMHWYQQKPGQPPKLLIYRASELQWGVPDRFSGSGSGTDFTLTISSLQAEDVAVYYCQRSNEVPWTFGQGTKLEIK
Reply | 10.18
